Kindly state inhibition at 20 min, 100 µM for each of the entries shown.
- target.system: MDR1 (P-glycoprotein, ABCB1) (Homo sapiens)
- Sequence (P08183 whole entry): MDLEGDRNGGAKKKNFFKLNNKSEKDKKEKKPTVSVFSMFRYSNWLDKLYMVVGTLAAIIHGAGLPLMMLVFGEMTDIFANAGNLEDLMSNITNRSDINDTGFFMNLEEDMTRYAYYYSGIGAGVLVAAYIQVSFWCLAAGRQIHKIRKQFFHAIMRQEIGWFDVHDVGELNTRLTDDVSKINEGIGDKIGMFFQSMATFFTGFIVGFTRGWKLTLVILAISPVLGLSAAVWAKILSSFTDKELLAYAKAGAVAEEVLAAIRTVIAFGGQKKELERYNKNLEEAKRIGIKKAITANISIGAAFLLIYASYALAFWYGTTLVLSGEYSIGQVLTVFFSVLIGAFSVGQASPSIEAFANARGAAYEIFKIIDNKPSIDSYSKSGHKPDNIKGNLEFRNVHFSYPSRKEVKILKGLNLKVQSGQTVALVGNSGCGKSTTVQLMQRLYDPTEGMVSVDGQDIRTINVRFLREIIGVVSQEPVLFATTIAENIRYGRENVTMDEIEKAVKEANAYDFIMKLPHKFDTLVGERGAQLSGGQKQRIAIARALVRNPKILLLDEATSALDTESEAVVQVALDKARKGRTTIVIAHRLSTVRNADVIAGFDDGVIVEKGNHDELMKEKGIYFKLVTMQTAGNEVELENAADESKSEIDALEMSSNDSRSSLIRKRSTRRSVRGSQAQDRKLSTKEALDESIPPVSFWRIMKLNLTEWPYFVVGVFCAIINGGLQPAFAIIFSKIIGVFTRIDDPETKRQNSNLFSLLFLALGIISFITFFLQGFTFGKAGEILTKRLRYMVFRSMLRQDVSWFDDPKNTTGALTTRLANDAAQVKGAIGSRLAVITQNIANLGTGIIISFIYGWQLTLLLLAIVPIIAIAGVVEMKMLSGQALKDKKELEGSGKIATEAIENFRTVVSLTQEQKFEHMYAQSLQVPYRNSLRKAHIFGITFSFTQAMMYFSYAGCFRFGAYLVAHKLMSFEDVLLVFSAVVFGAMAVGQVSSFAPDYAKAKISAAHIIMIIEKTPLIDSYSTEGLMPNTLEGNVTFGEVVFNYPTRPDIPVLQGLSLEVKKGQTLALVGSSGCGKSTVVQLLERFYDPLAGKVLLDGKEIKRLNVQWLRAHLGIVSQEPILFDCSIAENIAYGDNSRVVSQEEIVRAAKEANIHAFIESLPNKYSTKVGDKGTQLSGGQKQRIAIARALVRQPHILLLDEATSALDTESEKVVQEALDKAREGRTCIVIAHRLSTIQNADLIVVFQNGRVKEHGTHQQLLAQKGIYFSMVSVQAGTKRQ
- assay.summary: in vitro
- run.parameters: mouse L5178Y cells expressing human recombinant MDR1, probe rhodamine-123
- Description: Inhibition of human recombinant MDR1 expressed in mouse L5178Y cells assessed as inhibition of rhodamine-123 efflux at 10^-4 M preincubated for 10 mins measured after 20 mins by FACS analysis
I only need the number, in %, no unit after it.

Req: Consider the compound N#Cc1c(SCc2ccc(Cl)nc2)nc2c(c1C(F)(F)F)CCCC2 and give its measured inhibition at 20 min, 100 µM.
Resp: 20.4

Req: Consider the compound Cc1ccc(S(=O)(=O)Nc2ccc3c(c2)ncn3-c2ccccc2)cc1 and give its measured inhibition at 20 min, 100 µM.
Resp: 2.3

Req: Consider the compound COc1cc(C2=Nc3ccccc3SC2)cc(OC)c1OC and give its measured inhibition at 20 min, 100 µM.
Resp: 64.7

Req: Consider the compound Cn1cccc1-c1nc2cc(NC(=O)c3ccccc3)ccc2[nH]1 and give its measured inhibition at 20 min, 100 µM.
Resp: 1.6

Req: Consider the compound C=CCc1ccccc1OCC(O)CNC(C)C (stereo not given) [ALPRENOLOL] and give its measured inhibition at 20 min, 100 µM.
Resp: 5
